The values you see were collected from ChEMBL document CHEMBL1145014.

Experiment: Inhibitory activity of compound against […] inosine-adenosine-guanosine nucleoside hydrolase (IAG-NH) from Trypanosoma brucei
pKi: −log10 of the molar value.
So basically: pKi at 5 or higher? That is criterion met. Lower than 5? That is criterion not met.

Dear colleague, could you confirm whether NC(=O)c1[nH]cc(C2N[C@H](CO)[C@H](O)[C@@H]2O)c1N (stereo partly specified) has pKi at or above 5?
criterion met

Is pKi at least 5? Consider Nc1ncnc2c(C3N[C@H](CO)[C@H](O)[C@@H]3O)n[nH]c12 (stereo partly specified)
criterion not met

Is pKi at least 5? Consider Nc1[nH]cnc2c(C3N[C@H](CO)[C@H](O)[C@@H]3O)cnc1-2 (stereo partly specified)
criterion met

Assess whether reported pKi for O=c1[nH]cnc2c([C@@H]3N[C@H](CO)[C@@H](O)[C@H]3O)c[nH]c12 sits at 5 or higher.
criterion met

Confirm if pKi reported for the molecule NC(=O)c1[nH]nc(C2N[C@H](CO)[C@H](O)[C@@H]2O)c1N (stereo partly specified) is 5 or above.
criterion met

====

Molecular target: Purine nucleoside phosphorylase (Bos taurus, UniProt P55859)
Sequence (P55859 whole entry): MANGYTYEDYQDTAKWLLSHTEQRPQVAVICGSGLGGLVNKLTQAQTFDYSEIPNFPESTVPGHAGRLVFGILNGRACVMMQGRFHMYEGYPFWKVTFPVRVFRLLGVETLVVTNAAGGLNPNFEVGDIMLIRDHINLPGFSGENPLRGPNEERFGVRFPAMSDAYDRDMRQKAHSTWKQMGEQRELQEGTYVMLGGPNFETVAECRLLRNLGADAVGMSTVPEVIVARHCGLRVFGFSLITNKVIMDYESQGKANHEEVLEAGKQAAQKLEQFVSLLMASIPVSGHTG
For each of the molecules below, state its Ki.
Give the value in nM but do not write nM after it.

Consider the molecule OC[C@H]1N[C@@H](c2n[nH]c3c(O)ncnc23)[C@H](O)[C@@H]1O and give its measured Ki.
0.042

Endpoint output: Ki of O=c1[nH]cnc2c([C@@H]3N[C@H](CO)[C@@H](O)[C@H]3O)c[nH]c12 . Value?
0.023

Returns the measured Ki for the input molecule. Input: NC(=O)c1[nH]nc(C2N[C@H](CO)[C@H](O)[C@@H]2O)c1N (some centres undefined)
0.06

# get_value(readout='Ki', item= Nc1nc2c([C@@H]3N[C@H](CO)[C@@H](O)[C@H]3O)c[nH]c2c(=O)[nH]1 )
0.03

====

Target: Purine nucleoside phosphorylase (Homo sapiens, UniProt P00491)
Sequence (P00491 whole entry): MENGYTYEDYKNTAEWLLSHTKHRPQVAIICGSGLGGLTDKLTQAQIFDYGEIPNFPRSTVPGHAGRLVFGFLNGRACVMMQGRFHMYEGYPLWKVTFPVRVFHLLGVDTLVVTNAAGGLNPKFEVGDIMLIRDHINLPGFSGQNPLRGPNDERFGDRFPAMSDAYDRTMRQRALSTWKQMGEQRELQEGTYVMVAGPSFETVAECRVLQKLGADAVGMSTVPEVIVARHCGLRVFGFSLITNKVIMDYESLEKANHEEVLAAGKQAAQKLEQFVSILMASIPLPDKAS
Please respond with reported pKi for every item in the list.
To interpret pKi, take it as minus log10 of a concentration measured in moles per litre.

If you can, please state the reported pKi value of Nc1nc2c([C@@H]3N[C@H](CO)[C@@H](O)[C@H]3O)c[nH]c2c(=O)[nH]1 .
10.54

Requested field: pKi. Item: NC(=O)c1[nH]nc(C2N[C@H](CO)[C@H](O)[C@@H]2O)c1N (stereo partly drawn)
10.02

Returns the measured pKi for the input molecule. Input: OC[C@H]1N[C@@H](c2n[nH]c3c(O)ncnc23)[C@H](O)[C@@H]1O
9.98

====

readout label: K6
Note: state the figure and append the unit.

Enter reported K6 observed with Purine nucleoside phosphorylase (Bos taurus) (UniProt P55859) for Nc1nc2c([C@@H]3N[C@H](CO)[C@@H](O)[C@H]3O)c[nH]c2c(=O)[nH]1
0.00019 s⁻¹

Could you share what K6 was measured for O=c1[nH]cnc2c([C@@H]3N[C@H](CO)[C@@H](O)[C@H]3O)c[nH]c12 , tested on Purine nucleoside phosphorylase (Bos taurus) (UniProt P55859)?
4e-05 s⁻¹

Enter reported K6 observed with Purine nucleoside phosphorylase (Bos taurus) (UniProt P55859) for OC[C@H]1N[C@@H](c2n[nH]c3c(O)ncnc23)[C@H](O)[C@@H]1O
0.021 s⁻¹

Test system Purine nucleoside phosphorylase (Bos taurus) (UniProt P55859); read-out K6; what value for NC(=O)c1[nH]nc(C2N[C@H](CO)[C@H](O)[C@@H]2O)c1N (some centres undefined) ?
0.019 s⁻¹

====

Assay: Inhibitory activity of compound against inosine-uridine nucleoside hydrolase (IU-NH) from crithidia fasciculata
Binarize Ki at 40 nM; below is 1, at or above is -1.

Hello, I'm reviewing records and need to know if Ki of Nc1[nH]cnc2c(C3N[C@H](CO)[C@H](O)[C@@H]3O)cnc1-2 (stereo partly specified) is below 40 nM. Could you check?
1

Just wondering, is Ki of Nc1ncnc2c(C3N[C@H](CO)[C@H](O)[C@@H]3O)n[nH]c12 (stereo partly specified) below 40 nM?
-1

Hi there! Is Ki for NC(=O)c1[nH]nc(C2N[C@H](CO)[C@H](O)[C@@H]2O)c1N (stereo partly specified) below 40 nM, do you know?
-1

Consider O=c1[nH]cnc2c([C@@H]3N[C@H](CO)[C@@H](O)[C@H]3O)c[nH]c12 [FORODESINE] . Does its Ki lie strictly below 40 nM?
-1

Determine if OC[C@H]1N[C@@H](c2n[nH]c3c(O)ncnc23)[C@H](O)[C@@H]1O shows Ki strictly lower than 40 nM.
-1

Identify whether the compound NC(=O)c1[nH]cc(C2N[C@H](CO)[C@H](O)[C@@H]2O)c1N (stereo partly specified) records Ki below 40 nM.
1
